# system: human E3 ubiquitin-protein ligase RNF31 (HOIP) (Homo sapiens, UniProt Q96EP0)
# Sequence (Q96EP0 695-1072 limits assumed): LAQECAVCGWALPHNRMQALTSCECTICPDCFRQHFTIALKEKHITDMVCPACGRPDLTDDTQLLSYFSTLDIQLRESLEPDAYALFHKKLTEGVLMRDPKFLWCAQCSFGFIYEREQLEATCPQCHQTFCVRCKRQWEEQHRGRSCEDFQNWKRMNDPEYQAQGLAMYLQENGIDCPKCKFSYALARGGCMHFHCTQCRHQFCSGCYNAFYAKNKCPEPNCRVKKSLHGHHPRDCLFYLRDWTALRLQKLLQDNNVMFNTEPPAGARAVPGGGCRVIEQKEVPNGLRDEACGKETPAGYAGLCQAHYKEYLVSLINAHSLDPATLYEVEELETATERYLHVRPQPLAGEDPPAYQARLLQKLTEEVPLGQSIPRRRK
# assay_name: Cell-free HTRF-based HOIP inhibition assay
# Type: biochemical
# IC50 listing for each entry below

// known answers, use as guide
INSERT INTO measurements (molecule, reported_endpoint, measured_result) VALUES
  ('COc1ccc(S(=N)(=O)/C=C/CNC(=O)c2cc3c([nH]c2=O)CCCCC3)cc1F (stereo not drawn) [Example 150]', 'IC50', '≤ 1000 nM'),
  ('O=C(NC/C=C/S(=O)(=O)c1ccc(F)cc1F)c1cc2c([nH]c1=O)CCC2 [Example 42]', 'IC50', '≤ 1000 nM'),
  ('COc1ccc(S(=N)(=O)/C=C/CNC(=O)c2cc3c([nH]c2=O)CCC(C(F)(F)F)C3)cc1F (stereo not drawn) [Example 147]', 'IC50', '≤ 1000 nM'),
  ('N=S(=O)(/C=C/CNC(=O)c1cc2c([nH]c1=O)CCCC2)c1ccc(Cl)cc1 (stereo not drawn) [Example 131]', 'IC50', '≤ 100 nM'),
  ('O=C(NC/C=C/S(=O)(=O)C1CCCC1)c1cc2c([nH]c1=O)CCCC2 [Example 17]', 'IC50', '≤ 10000 nM');

// below: IC50 requested for another molecule
Input line: Value wanted: IC50 (human E3 ubiquitin-protein ligase RNF31 (HOIP) (Homo sapiens, UniProt Q96EP0)) of entry CC(C)(C)NC(=O)N1CCc2[nH]c(=O)c(C(=O)NC/C=C/S(=O)(=O)c3ccc(Cl)cc3)cc2C1 [Example 99]
Output line: ≤ 1000 nM
